Target: 5-HT1B receptor (Didelphis virginiana, UniProt P35404)
Construct: mediated by a 5-HT1B receptor, in an OK kidney epithelial cell line; endogenous in cells; host or cells: OK kidney epithelial cell line
Sequence (P35404 whole entry): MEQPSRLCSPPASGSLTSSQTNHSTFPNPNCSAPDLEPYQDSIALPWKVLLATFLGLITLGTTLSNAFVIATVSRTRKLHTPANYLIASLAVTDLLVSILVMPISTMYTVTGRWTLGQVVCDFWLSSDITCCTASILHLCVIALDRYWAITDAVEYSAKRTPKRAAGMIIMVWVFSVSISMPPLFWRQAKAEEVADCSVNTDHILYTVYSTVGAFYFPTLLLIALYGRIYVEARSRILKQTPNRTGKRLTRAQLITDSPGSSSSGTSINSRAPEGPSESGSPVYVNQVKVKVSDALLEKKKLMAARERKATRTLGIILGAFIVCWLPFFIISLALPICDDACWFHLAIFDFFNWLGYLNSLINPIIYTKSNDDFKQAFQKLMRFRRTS
Assay: Agonist activity: inhibition of forskolin-stimulated cAMP formation mediated by a 5-HT1B receptor in OK kidney epithelial cell line
Format: cell-based
pEC50: −log10 of the molar value. Where a name gives a salt, the structure may show the parent alone.
Assignment: determine reported pEC50 for the given compounds.

Dear colleague, please send me the reported pEC50 for NCCc1c[nH]c2ccc(OCC(=O)N3CCN(c4ccc([N+](=O)[O-])cc4)CC3)cc12 [Example 1, hydrochloride] when you can.
8.92 to 9.52

Return pEC50 for the following compound: NCCc1c[nH]c2ccc(OCC(=O)N3CCN(c4ccc(N)cc4)CC3)cc12 [Example 2, hydrochloride]
8.92 to 9.52

Answer with the recorded pEC50 for the compound listed here: CC(=O)Nc1ccc(N2CCN(C(=O)COc3ccc4[nH]cc(CCN)c4c3)CC2)cc1 [Example 3, hydrochloride]
8.92 to 9.52

----------
Biological target: human 5HT1Db receptor (Homo sapiens)
Assay: Binding to cloned human 5HT1Db receptor
Conditions: human cloned receptor; [3H] ligand 2 nM; read-out: Ki 5HT1Db
Structures can show the parent of a compound that is named as a salt.
Ki strictly less than 0.7 nM = 1. Otherwise 0.

API: query returns whether the compound falls strictly under 0.7 nM in Ki. Query: NCCc1c[nH]c2ccc(OCC(=O)N3CCN(c4ccc(NS(=O)(=O)c5ccc([N+](=O)[O-])cc5)cc4)CC3)cc12 [Example 26, hydrochloride]
1

Does NCCc1c[nH]c2ccc(OCC(=O)N3CCN(c4ccc([N+](=O)[O-])cc4)CC3)cc12 [Example 1, hydrochloride] have Ki strictly under 0.7 nM?
0

Please state whether Ki is below 0.7 nM for CS(=O)(=O)Nc1ccc(N2CCN(C(=O)COc3ccc4[nH]cc(CCN)c4c3)CC2)cc1 [Example 5, hydrochloride]
0

Criterion: Ki strictly below 0.7 nM. Is it met by CS(=O)(=O)Nc1ccc(N2CCN(C(=O)CCCCCOc3ccc4[nH]cc(CCN)c4c3)CC2)cc1 [Example 59, hydrochloride] ?
0

----------
Molecular target: human 5HT1Db receptor (Homo sapiens, UniProt P28222)
Sequence (P28222 whole entry): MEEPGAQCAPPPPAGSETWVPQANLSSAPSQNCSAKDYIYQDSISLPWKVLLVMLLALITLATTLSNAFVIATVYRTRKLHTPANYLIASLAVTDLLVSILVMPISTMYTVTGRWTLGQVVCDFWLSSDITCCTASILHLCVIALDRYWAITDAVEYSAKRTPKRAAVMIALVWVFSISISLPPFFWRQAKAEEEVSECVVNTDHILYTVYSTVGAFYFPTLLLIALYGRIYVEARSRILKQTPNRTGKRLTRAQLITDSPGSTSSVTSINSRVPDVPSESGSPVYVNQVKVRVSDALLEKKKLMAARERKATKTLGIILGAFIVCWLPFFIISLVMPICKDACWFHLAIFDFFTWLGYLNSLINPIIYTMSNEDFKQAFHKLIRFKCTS
Assay: cell-based
Conditions: human 5HT1Db; CHO-K1 cells; read-out: EC50 (Inhibition of the 5HT1Db cyclase stimulated by forskolin)
Procedure: Human 5HT1Da and 5HT1Db receptors were cloned according to the sequences published by M. Hamblin and M. Metcalf, Mol. Pharmacol., 40, 143 (1991) and Weinshenk et al., Proc. Natl. Acad. Sci., 89, 3630 (1992). The transient transfection and the stable transfection of the genes of these receptors was carried out in Cos-7 and CHO-K1 cell lines by using an electroporator. […]
Structures can show the parent of a compound that is named as a salt.
parameter.measured: EC50

Supply recorded EC50 for NCCc1c[nH]c2ccc(OCC(=O)N3CCN(c4ccc([N+](=O)[O-])cc4)CC3)cc12 [Example 1, hydrochloride] here.
1.2 nM

Name the recorded EC50 of the compound listed here: CS(=O)(=O)Nc1ccc(N2CCN(C(=O)CCCCCOc3ccc4[nH]cc(CCN)c4c3)CC2)cc1 [Example 59, hydrochloride]
0.52 nM

Fill in reported EC50 for this entry: NCCc1c[nH]c2ccc(OCC(=O)N3CCN(c4ccc(NS(=O)(=O)c5ccc([N+](=O)[O-])cc5)cc4)CC3)cc12 [Example 26, hydrochloride]
6.5 nM

Please indicate EC50 recorded for CS(=O)(=O)Nc1ccc(N2CCN(C(=O)COc3ccc4[nH]cc(CCN)c4c3)CC2)cc1 [Example 5, hydrochloride]
6.5 nM

Return EC50 (reported value) for this compound: CS(=O)(=O)Nc1ccc(N2CCN(CCOc3ccc4[nH]cc(CCN)c4c3)CC2)cc1 [Example 41, hydrochloride]
2.6 nM

----------
Kindly supply the reported Ki values for the records listed here.
Target: human 5HT1Da receptor (Homo sapiens, UniProt P28221)
Sequence (P28221 whole entry): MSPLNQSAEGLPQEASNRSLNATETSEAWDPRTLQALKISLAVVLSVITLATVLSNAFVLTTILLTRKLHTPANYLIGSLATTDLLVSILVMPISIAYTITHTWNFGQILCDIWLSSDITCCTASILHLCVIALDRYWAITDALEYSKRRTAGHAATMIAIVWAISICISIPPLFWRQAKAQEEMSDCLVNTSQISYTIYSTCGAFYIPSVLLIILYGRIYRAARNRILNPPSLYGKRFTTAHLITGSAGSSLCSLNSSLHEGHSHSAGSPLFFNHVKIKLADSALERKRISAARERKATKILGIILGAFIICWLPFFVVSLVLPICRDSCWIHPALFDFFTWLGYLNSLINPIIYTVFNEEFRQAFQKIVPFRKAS
Test: Binding to cloned human 5HT1Da receptor
Conditions: human cloned receptor; [3H] ligand 2 nM; read-out: Ki 5HT1Da
Structures can show the parent of a compound that is named as a salt.
Report as a plain number; the unit pM is understood.

Give the reported Ki for this compound. CS(=O)(=O)Nc1ccc(N2CCN(C(=O)CCCCCOc3ccc4[nH]cc(CCN)c4c3)CC2)cc1 [Example 59, hydrochloride]
1300

Identify measured Ki corresponding to CS(=O)(=O)Nc1ccc(N2CCN(C(=O)COc3ccc4[nH]cc(CCN)c4c3)CC2)cc1 [Example 5, hydrochloride]
700

State, in one line, measured Ki of NCCc1c[nH]c2ccc(OCC(=O)N3CCN(c4ccc(NS(=O)(=O)c5ccc([N+](=O)[O-])cc5)cc4)CC3)cc12 [Example 26, hydrochloride]
250

Annotate the compound NCCc1c[nH]c2ccc(OCC(=O)N3CCN(c4ccc([N+](=O)[O-])cc4)CC3)cc12 [Example 1, hydrochloride] with its measured Ki.
500

Assign Ki to the following record: CS(=O)(=O)Nc1ccc(N2CCN(CCOc3ccc4[nH]cc(CCN)c4c3)CC2)cc1 [Example 41, hydrochloride]
1100

----------
Molecular target: 5-HT1A (Rattus norvegicus, UniProt P19327)
Construct: from tissue; host or cells: rat frontal cortex (from the title of the cited method)
Sequence (P19327 whole entry): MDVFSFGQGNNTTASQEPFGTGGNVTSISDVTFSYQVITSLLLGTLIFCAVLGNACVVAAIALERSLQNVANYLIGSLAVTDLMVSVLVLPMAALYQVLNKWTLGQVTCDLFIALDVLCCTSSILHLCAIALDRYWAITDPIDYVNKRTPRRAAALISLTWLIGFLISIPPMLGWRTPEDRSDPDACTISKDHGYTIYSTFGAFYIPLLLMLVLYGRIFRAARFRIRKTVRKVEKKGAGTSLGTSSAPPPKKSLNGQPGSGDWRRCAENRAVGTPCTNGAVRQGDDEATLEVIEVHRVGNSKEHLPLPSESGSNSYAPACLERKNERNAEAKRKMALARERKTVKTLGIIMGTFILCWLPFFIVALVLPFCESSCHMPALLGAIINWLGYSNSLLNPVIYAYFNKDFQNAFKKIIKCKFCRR
Test: Affinity for 5-HT1A receptors (method of Peroutka)
Assay type: binding
Conditions: rat frontal cortex (Peroutka method); read-out: IC50 5-HT1A mean
Where a name gives a salt, the structure may show the parent alone.
parameter.measured: IC50 (nM)
Just the number please, in nM, no unit attached.

Read off the recorded IC50 for CCS(=O)(=O)Nc1ccc(N2CCN(C(=O)COc3ccc4[nH]cc(CCN)c4c3)CC2)cc1 [Example 7, hydrochloride]
44

Tell me its IC50 given NCCc1c[nH]c2ccc(OCC(=O)N3CCN(c4ccc(NC(=O)c5ccccc5)cc4)CC3)cc12 [Example 4, hydrochloride] as the entry.
75

Give me measured IC50, please, for this molecule: CS(=O)(=O)N(c1ccc(N2CCN(C(=O)COc3ccc4[nH]cc(CCN)c4c3)CC2)cc1)S(C)(=O)=O [Example 6, hydrochloride]
79

Quote IC50 reported for NCCc1c[nH]c2ccc(OCC(=O)N3CCN(c4ccc(N(S(=O)(=O)c5cccs5)S(=O)(=O)c5cccs5)cc4)CC3)cc12 [Example 9, hydrochloride] please.
38

Output measured IC50 for this item: CCOC(=O)Nc1ccc(N2CCN(C(=O)COc3ccc4[nH]cc(CCN)c4c3)CC2)cc1 [Example 11, hydrochloride]
105

Give the reported value of IC50 for this record: Cc1noc(C)c1S(=O)(=O)Nc1ccc(N2CCN(C(=O)COc3ccc4[nH]cc(CCN)c4c3)CC2)cc1 [Example 10, hydrochloride]
20

Tell us which IC50 value is on record for NCCc1c[nH]c2ccc(OCC(=O)N3CCN(c4ccc(NS(=O)(=O)c5cccs5)cc4)CC3)cc12 [Example 8, hydrochloride]
26

----------
System: 5-HT1D receptors
Experiment: Affinity for 5-HT1D receptors (3H-5HT binding, sheep caudate membranes)
Conditions: selectivity 5-HT1D over 5-HT1A
Counter-ions that a name gives are not always drawn.
Mark YES only for Ratio 1A/1D (ratio of the IC50 values for the 5HT1A and 5HT1D receptors) values smaller than 30; exact matches and larger values are NO.

Criterion: Ratio 1A/1D (ratio of the IC50 values for the 5HT1A and 5HT1D receptors) strictly below 30. Is it met by NCCc1c[nH]c2ccc(OCC(=O)N3CCN(c4ccc(NS(=O)(=O)c5cccs5)cc4)CC3)cc12 [Example 8, hydrochloride] ?
YES

I'd appreciate it if you could check whether NCCc1c[nH]c2ccc(OCC(=O)N3CCN(c4ccccc4[N+](=O)[O-])CC3)cc12 [Example 14, hydrochloride] has Ratio 1A/1D (ratio of the IC50 values for the 5HT1A and 5HT1D receptors) smaller than 30.
YES

For CCS(=O)(=O)Nc1ccc(N2CCN(C(=O)COc3ccc4[nH]cc(CCN)c4c3)CC2)cc1 [Example 7, hydrochloride] , is the recorded Ratio 1A/1D (ratio of the IC50 values for the 5HT1A and 5HT1D receptors) below the cut-off of 30?
YES

Given the entry NCCc1c[nH]c2ccc(OCC(=O)N3CCN(c4ccc(NC(=O)c5ccccc5)cc4)CC3)cc12 [Example 4, hydrochloride] , would its reported Ratio 1A/1D (ratio of the IC50 values for the 5HT1A and 5HT1D receptors) be below 30?
NO

Decide: Ratio 1A/1D (ratio of the IC50 values for the 5HT1A and 5HT1D receptors) of CCOC(=O)Nc1ccc(N2CCN(C(=O)COc3ccc4[nH]cc(CCN)c4c3)CC2)cc1 [Example 11, hydrochloride] strictly below 30?
NO

# check: Ratio 1A/1D (ratio of the IC50 values for the 5HT1A and 5HT1D receptors) < 30 for CS(=O)(=O)N(c1ccc(N2CCN(C(=O)COc3ccc4[nH]cc(CCN)c4c3)CC2)cc1)S(C)(=O)=O [Example 6, hydrochloride]
YES

Given the entry Cc1noc(C)c1S(=O)(=O)Nc1ccc(N2CCN(C(=O)COc3ccc4[nH]cc(CCN)c4c3)CC2)cc1 [Example 10, hydrochloride] , would its reported Ratio 1A/1D (ratio of the IC50 values for the 5HT1A and 5HT1D receptors) be below 30?
YES
